Target: hCHT (Homo sapiens, UniProt Q9GZV3)
Construct: The hCHT cDNA encodes a protein of 580 amino acids; expressed in transfected cells; host or cells: COS-7 (transient, FuGene 6, pcDNA3)
Sequence (Q9GZV3 whole entry): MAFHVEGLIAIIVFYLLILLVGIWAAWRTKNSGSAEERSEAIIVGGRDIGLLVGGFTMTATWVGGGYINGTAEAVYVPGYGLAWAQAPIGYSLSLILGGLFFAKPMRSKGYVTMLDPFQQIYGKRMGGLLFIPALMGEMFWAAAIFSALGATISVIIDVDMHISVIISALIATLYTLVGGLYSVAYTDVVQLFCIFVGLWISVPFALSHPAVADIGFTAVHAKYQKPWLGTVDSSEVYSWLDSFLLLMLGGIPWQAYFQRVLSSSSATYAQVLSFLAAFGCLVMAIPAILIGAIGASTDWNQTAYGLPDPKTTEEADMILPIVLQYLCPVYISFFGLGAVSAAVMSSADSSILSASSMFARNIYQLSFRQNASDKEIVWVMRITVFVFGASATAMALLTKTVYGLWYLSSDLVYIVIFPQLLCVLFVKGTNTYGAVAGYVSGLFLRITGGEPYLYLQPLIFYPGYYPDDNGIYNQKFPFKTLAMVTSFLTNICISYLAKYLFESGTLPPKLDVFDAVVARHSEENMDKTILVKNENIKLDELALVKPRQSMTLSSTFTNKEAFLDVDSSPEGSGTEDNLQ
Test: [3H]HC-3 radioligand binding in membrane fractions of hCHT transfected COS-7 cells
Settings: 10 nM [3H]HC-3, hCHT transfected COS-7 cell membranes; read-out: Ki in inhibiting [3H]HC-3 binding
pKi: −log10 of the molar value.
measurement-name: pKi

| compound | measured-target | value-measured |
| --- | --- | --- |
| C[N+]1(C)CCOC(O)(c2ccc(-c3ccc(C4(O)C[N+](C)(C)CCO4)cc3)cc2)C1.[Br-].[Br-] (stereo not shown) [HC-3, hemicholinium-3] | hCHT (Homo sapiens, UniProt Q9GZV3) | 8.40 |
